tested on: Bacillus subtilis DB104 (SP-AmyQ fusion secretion); assay: AmyQ secretion efficiency, weighted average sort bin (1 = best secretion, 10 = worst) (bin number (weighted average, 1-10)); higher = lower secretion efficiency
Each entry falls in a class defined on AmyQ secretion efficiency; the bands are Low (below 3), Mid (3 to below 6), High (6 or more)

Which class is correct for the following sequence? "MRFTKTVGFLSVLGLAAVFPLTAQAEKA"
Low

---

system: Bacillus subtilis DB104 (SP-AmyQ fusion secretion); assay: AmyQ secretion efficiency, weighted average sort bin (1 = best secretion, 10 = worst) (bin number (weighted average, 1-10)); higher = lower secretion efficiency
Record form. Attribute: AmyQ secretion efficiency. Fill in for each entry.
Numbers only.

// below: answered sequences
MKQGKFSVFLILLLMLTLVVAPKEKAEHASS = 4.93
MRKTIFAFLTGLMMFGTITAPSASPD = 5.98
MMKKGLLAGALTATVLFGTCAVDVPGIISPKTAEAAKR = 4.03
MKRLLVSLRVWMVFLMNWVTPDRKTRAAAVY = 6.54

Required: AmyQ secretion efficiency, one value per sequence below.
1. MFKKHSTISLLIIFLLASAVLAKPIEAHTV
2. MKKRKQRPRLLSAASLAFFAMSGSAQAAAY
3. MKSKGSIMACLILFSFTITTFINTETPSAFSN
4. MNMLKRLSMLTVMIASVFIFSSHALAAQY
5. MMIKQCVICLSLLVFGTEEDAHAEET
6. MRGKSAVLLSLIMLIAGFLINFSFQM

1. 1.86
2. 6.55
3. 5.71
4. 1.63
5. 3.44
6. 6.91

---

test system: Bacillus subtilis DB104 (SP-AmyQ fusion secretion); experiment: AmyQ secretion efficiency, weighted average sort bin (1 = best secretion, 10 = worst) (bin number (weighted average, 1-10)); higher = lower secretion efficiency
metric: AmyQ secretion efficiency
Answers are plain numbers.

Required: AmyQ secretion efficiency, one value per sequence below.
1. MMGRKVLTGSVLSLGLLVSASPAFATSP
2. MKKAFILSAAAAVGLFTFGGVQQISAKEL
3. MKNMSCKLVVSVTLFFSFLTIGPLAHTQNS
4. MKRMIVRMTTPLLIVCLAFSSFSASARAASE

1. 2.07
2. 3.06
3. 4.17
4. 2.03

Required: AmyQ secretion efficiency, one value per sequence below.
1. MKRKQQKSLAISALSLGLLVSAPTASFAAES
2. MMKKGQSGSALTATVLFGTCAVDVPGIISPKTAEAASQ
3. MKKQIITATTAVVLGSTLFAGAPSAQSI

1. 3.07
2. 6.78
3. 3.52

Required: AmyQ secretion efficiency, one value per sequence below.
1. MKLSVKIAGVLTVAAAAMTAKMYWTAKGN
2. MKKRFFGPIILAFILFAGAIEIPS
3. MPIKKKVMMCTSGTTSFGSMSFPTLTNSGGFKE

7.62
5.48
7.09

Required: AmyQ secretion efficiency, one value per sequence below.
1. MKKQIITATTAVVGAASAQSI
2. MKKRLIGFLVLVPALIMSGITLDEANKK
3. MRNLTKTSLLLAGLCTAAEEEEEDHASAEES

1: 7.59; 2: 4.52; 3: 6.56

---

Record form. Attribute: AmyQ secretion efficiency. Fill in for each entry.
test system: Bacillus subtilis DB104 (SP-AmyQ fusion secretion); test: AmyQ secretion efficiency, weighted average sort bin (1 = best secretion, 10 = worst) (bin number (weighted average, 1-10)); higher = lower secretion efficiency
One number for each entry.

// below: answered sequences
MRSYIKVKKKCRLGLILFVPTALADNS = 6.78
MQNRLFRVCFLAALIMAFTLPNSVYAQKP = 1.12

Required: AmyQ secretion efficiency, one value per sequence below.
1. MRSYIKFNFIISVLTMCFLGLILFVPTALADNS
2. MPYLKRVLLLLVFFLFMFLFSAVTATASAQTG
3. MKRTWNVCLTALLSVLLVAGSVPFHAEAAPK
4. MKKVMLATALFLGLTPAGVNAADL
5. MKKWMAGLFLAAAVLLCLMVPQQIQPASS
6. MSNMSCMLVVSVTLFFSFLTIGPLAHAQNS

1.36
1.35
2.29
4.08
7.7
1.7
